Target: Mitogen-activated protein kinase 8 (Homo sapiens)
Sequence (P45983 whole entry): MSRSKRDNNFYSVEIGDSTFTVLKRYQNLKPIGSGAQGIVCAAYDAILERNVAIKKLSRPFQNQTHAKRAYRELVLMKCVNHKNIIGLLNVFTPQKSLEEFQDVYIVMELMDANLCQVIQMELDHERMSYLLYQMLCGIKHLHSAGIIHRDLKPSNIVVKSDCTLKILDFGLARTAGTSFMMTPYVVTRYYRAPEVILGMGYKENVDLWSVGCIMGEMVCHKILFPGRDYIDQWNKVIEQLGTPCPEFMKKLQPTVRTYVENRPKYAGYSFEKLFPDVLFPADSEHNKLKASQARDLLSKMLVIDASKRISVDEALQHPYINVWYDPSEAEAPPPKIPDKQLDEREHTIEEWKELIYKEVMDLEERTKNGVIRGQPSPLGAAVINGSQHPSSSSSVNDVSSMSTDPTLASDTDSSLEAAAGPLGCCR
Test: DELFIA Assay (Dissociation Enhanced Lanthanide Fluoro-Immuno Assay)
Conditions: pH 7.8; 0 °C
Returns: string. Value is Met if measured IC50 is below 0.07 µM, and Not met if it is greater than or equal to it.

INSERT INTO assay_data (compound, discrete_label) VALUES
  ('O=[N+]([O-])c1cnc(Sc2nnc(O)n2-c2ccc(C(F)(F)F)cc2)s1 [triazole, 3p]', 'Not met'),
  ('O=[N+]([O-])c1cnc(Sc2nnc(O)n2C2CCCCC2)s1 [triazole, 3q]', 'Met'),
  ('O=[N+]([O-])c1cnc(Sc2nnc(-c3ccncc3)n2-c2ccccc2)s1 [triazole, 7f]', 'Not met'),
  ('O=[N+]([O-])c1cnc(Sc2nnc(-c3cccc4ccccc34)n2Cc2ccco2)s1 [triazole, 7d]', 'Met'),
  ('O=[N+]([O-])c1cnc(Sc2nnc(O)n2-c2cccc(C(F)(F)F)c2)s1 [triazole, 3o]', 'Not met'),
  ('COc1ccc(-n2c(Sc3ncc([N+](=O)[O-])s3)n[nH]c2=O)cc1OC [triazole, 3f]', 'Met'),
  ('Cn1c(Cc2nc(-c3cnccn3)[n-][o+]2)nnc1Sc1ncc([N+](=O)[O-])s1 [triazole, 7g]', 'Not met'),
  ('O=c1[nH]nc(Sc2ncc([N+](=O)[O-])s2)n1-c1ccc(F)cc1 [triazole, 3c]', 'Not met');

====

Target: Mitogen-activated protein kinase 8 (Homo sapiens)
Experiment: DELFIA Assay (Dissociation Enhanced Lanthanide Fluoro-Immuno Assay)
Some compounds, each annotated with its measured IC50.
Measurement Kind: IC50 (nM)

INSERT INTO measurements (structure_notation, value_unit, measured) VALUES
  ('O=[N+]([O-])c1cnc(Sc2nnc(-c3ccncc3)n2-c2ccccc2)s1', 'nM', 3100),
  ('O=c1[nH]nc(Sc2ncc([N+](=O)[O-])s2)n1-c1ccc([N+](=O)[O-])cc1', 'nM', 400),
  ('COc1ccc(-n2c(Sc3ncc([N+](=O)[O-])s3)n[nH]c2=O)cc1OC', 'nM', 1000),
  ('O=[N+]([O-])c1cnc(Sc2nnc(-c3cccc4ccccc34)n2Cc2ccco2)s1', 'nM', 13600),
  ('O=c1[nH]nc(Sc2ncc([N+](=O)[O-])s2)n1-c1ccc(OC(F)(F)F)cc1', 'nM', 2000),
  ('O=[N+]([O-])c1cnc(Sc2nnc(O)n2C2CCCCC2)s1', 'nM', 25000),
  ('O=c1[nH]nc(Sc2ncc([N+](=O)[O-])s2)n1-c1ccc(F)cc1', 'nM', 1800),
  ('O=[N+]([O-])c1cnc(Sc2nnc(Sc3ncc([N+](=O)[O-])s3)s2)s1', 'nM', 187);

====

Target: Mitogen-activated protein kinase 8 (Homo sapiens)
Test: DELFIA Assay (Dissociation Enhanced Lanthanide Fluoro-Immuno Assay)
pIC50: −log10 of the molar value.
Measurement Kind: pIC50

INSERT INTO results (structure_notation, measured) VALUES
  ('COc1cc(OC)cc(-n2c(Sc3ncc([N+](=O)[O-])s3)n[nH]c2=O)c1', 5.37),
  ('Cn1cccc1-c1nnc(Sc2ncc([N+](=O)[O-])s2)n1-c1ccc(Cl)cc1Cl', 5.70),
  ('O=[N+]([O-])c1cnc(Sc2nnc(O)n2-c2ccc(C(F)(F)F)cc2)s1', 5.52),
  ('O=[N+]([O-])c1cnc(Sc2nnc(O)n2-c2ccc(F)c(F)c2)s1', 5.18),
  ('COc1ccc(OC)c(-n2c(Sc3ncc([N+](=O)[O-])s3)n[nH]c2=O)c1', 5.62),
  ('O=[N+]([O-])c1cnc(Sc2nnc(O)n2-c2cccc3ccccc23)s1', 5.57),
  ('Nc1nnc(Sc2ncc([N+](=O)[O-])s2)s1', 6.62),
  ('O=[N+]([O-])c1cnc(Sc2nnc(O)n2-c2cccc(C(F)(F)F)c2)s1', 5.54),
  ('O=C(O)c1cnc(Sc2nnc(Sc3ncc(C(=O)O)s3)s2)s1', 7.00),
  ('CC(C)(C)c1ccc(-n2c(O)nnc2Sc2ncc([N+](=O)[O-])s2)cc1', 4.41),
  ('Cn1c(Cc2nc(-c3cnccn3)[n-][o+]2)nnc1Sc1ncc([N+](=O)[O-])s1', 4.00),
  ('COc1cccc(-n2c(O)nnc2Sc2ncc([N+](=O)[O-])s2)c1', 4.80),
  ('O=c1[nH]nc(Sc2ncc([N+](=O)[O-])s2)n1-c1cccc(F)c1', 4.08);

// data source = BindingDB's records for doi:10.1021/jm801503n
